Here the recorded Activity is given for each entry.
# Species on record: Rattus norvegicus
# ASSAY: Inhibition of FeCl3-induced vessel occlusion in rat arterial thrombosis model; 0 out of 6 occlusions
# Type: functional
Number, no unit, nothing else.

Look up Activity for this compound: NCc1ccc(Cl)cc1CNC(=O)[C@@H]1CCCN1C(=O)C1(O)c2ccccc2-c2ccncc21 (stereo in doubt; form 2)
0

Look up Activity for this compound: NCc1ccc(Cl)cc1CNC(=O)[C@@H]1CCCN1C(=O)C1(O)c2ccccc2-c2cc[n+]([O-])cc21 (stereo in doubt; form 2)
0

Look up Activity for this compound: NCc1ccc(Cl)cc1CNC(=O)[C@@H]1CCCN1C(=O)C1(O)c2cc(Cl)ccc2-c2ncccc21 (single isomer, unassigned)
0

Look up Activity for this compound: NCc1ccc(Cl)cc1CNC(=O)[C@@H]1CCCN1C(=O)C1(O)c2ccccc2-c2c1ccc[n+]2[O-] (stereo in doubt; form 2)
0

Look up Activity for this compound: NCc1ccc(Cl)cc1CNC(=O)[C@@H]1CCCN1C(=O)C1(O)c2ccccc2-c2cnccc21 (stereo in doubt; form 2)
0

Next up:
Look up Activity for this compound: NCc1ccc(Cl)cc1CNC(=O)[C@@H]1CCCN1C(=O)C1(O)c2ccccc2-c2ncccc21 (single isomer, unassigned)
0
